# system.tested: T1, recombinant human TROP2 extracellular domain (aa 1-274) comprising His tag (human, UniProt P09758 27-274)
# T1 construct: Used here for all assays on recombinant human TROP2 (ELISA, immunoblot, SPR, crystal), although only some of them name the catalogue number; also called human recombinant TROP2; recombinant human TROP2 protein; not shown: His tag
# T1 sequence: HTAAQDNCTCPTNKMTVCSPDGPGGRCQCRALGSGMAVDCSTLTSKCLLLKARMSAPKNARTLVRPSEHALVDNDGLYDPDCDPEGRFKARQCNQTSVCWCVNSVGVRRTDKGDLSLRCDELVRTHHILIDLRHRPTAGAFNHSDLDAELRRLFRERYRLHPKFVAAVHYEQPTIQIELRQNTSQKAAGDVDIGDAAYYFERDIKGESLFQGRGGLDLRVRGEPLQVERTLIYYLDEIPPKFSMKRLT
# run.description: SPR
Measured koff, listed per entry.
Be sure to follow the number with its unit.

// worked examples, koff included
KD001 (antibody, human IgG1, V domains shown, also called anti-TROP2 sdAb KD001) VH: QVQLQESGGGMVHPGGSLRLSCAASGFTFSGSDMSWVRQAPGKGPEWVSYITSGGTTYYPDSVKGRFTISRDNAKNTLYLQMNSLTPDDTALYRCAKARLTDSHYVEDAWGQGTQVTVSS
7.54e-05 s⁻¹
KD002 (antibody, human IgG1, V domains shown, also called anti-TROP2 sdAb KD002) VH: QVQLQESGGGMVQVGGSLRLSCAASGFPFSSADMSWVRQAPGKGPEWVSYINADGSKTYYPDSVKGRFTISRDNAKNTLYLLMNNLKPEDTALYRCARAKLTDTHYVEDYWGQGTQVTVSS
5.69e-05 s⁻¹

Ask: Can you share its koff? I mean this binder: KD003 (antibody, human IgG1, V domains shown, also called anti-TROP2 sdAb KD003) VH: QVQLQESGGGMVQPGGSLRLSCAASGFTFSNYDMSWVRQAPGKGPEWVSYINAGGSNTDYPDSVKGRFTISRDNAKNMLYLLMNNLKPEDTALYRCARAKLTDTHYVEDYWGQGTQVTVSS
Result: 4.88e-05 s⁻¹

Ask: Can you share its koff? I mean this binder: KD005 (antibody, human IgG1, V domains shown, also called anti-TROP2 sdAb KD005) VH: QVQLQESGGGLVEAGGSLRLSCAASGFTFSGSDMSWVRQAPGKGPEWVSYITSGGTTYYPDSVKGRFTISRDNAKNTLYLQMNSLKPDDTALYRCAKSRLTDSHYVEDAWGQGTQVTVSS
Result: 4.27e-05 s⁻¹

Ask: Can you share its koff? I mean this binder: KD004 (antibody, human IgG1, V domains shown, also called anti-TROP2 sdAb KD004) VH: QVQLQESGGGLVQPGRSLRLSCAASGFTFSGSDMSWVRQAPGKGPEWVSYITGSGTTYYPDSVKGRFTTSRDNAKNMLYLQMNSLKPDDTALYRCAKARLTDSHYVEDAWGQGTQVTVSS
Result: 4.42e-05 s⁻¹
